Target entity: recombinant human 5-HT5A receptor (Homo sapiens)
Sequence (P47898 whole entry): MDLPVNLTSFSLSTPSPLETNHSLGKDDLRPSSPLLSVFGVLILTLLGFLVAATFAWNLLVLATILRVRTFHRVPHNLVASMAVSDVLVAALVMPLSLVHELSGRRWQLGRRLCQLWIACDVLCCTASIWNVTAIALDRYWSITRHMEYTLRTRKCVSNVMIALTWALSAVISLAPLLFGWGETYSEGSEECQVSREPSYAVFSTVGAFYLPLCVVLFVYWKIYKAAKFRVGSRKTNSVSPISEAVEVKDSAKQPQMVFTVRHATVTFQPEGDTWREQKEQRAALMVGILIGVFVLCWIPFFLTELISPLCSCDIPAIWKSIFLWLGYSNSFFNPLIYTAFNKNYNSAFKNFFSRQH
Assay text: [3H]LSD radioligand binding assay, membranes of HEK-EBNA cells transiently expressing 5-HT5A receptors
Test context: [3H]LSD approx. 1 nM, SPA beads, 120 min at room temperature; Ki from IC50 by Cheng-Prussoff equation
Measured quantity: Ki (nM)

[1] O=S(=O)(Nc1cccc2nc(NC3CCCc4ccccc43)ccc12)c1cc(F)cc(F)c1 (racemic)
[2] c1cncc(-c2cccc3nc(N[C@@H]4CCc5ccccc54)ccc23)c1
[3] COc1cccc2c1C(Nc1ccc3c(NS(=O)(=O)c4cccc5c4ccn5C)cccc3n1)CC2 (racemic)
[4] O=S(=O)(Nc1cccc2nc(NC3COc4ccccc43)ccc12)c1cc(F)cc(F)c1 (single isomer, unassigned; (+))
Problem: // smallest Ki at index 0, largest at the end Give your ranking as a list of the labels in the requested order.
Result: 3, 4, 1, 2
